Molecular target: T1, human CD276 protein (human, UniProt Q5ZPR3 29-534)
T1 construct: whole, on cells; for SKOV3 and the other cancer lines the protein is the cells' own; also called B7-H3; B7H3
T1 sequence (looked up): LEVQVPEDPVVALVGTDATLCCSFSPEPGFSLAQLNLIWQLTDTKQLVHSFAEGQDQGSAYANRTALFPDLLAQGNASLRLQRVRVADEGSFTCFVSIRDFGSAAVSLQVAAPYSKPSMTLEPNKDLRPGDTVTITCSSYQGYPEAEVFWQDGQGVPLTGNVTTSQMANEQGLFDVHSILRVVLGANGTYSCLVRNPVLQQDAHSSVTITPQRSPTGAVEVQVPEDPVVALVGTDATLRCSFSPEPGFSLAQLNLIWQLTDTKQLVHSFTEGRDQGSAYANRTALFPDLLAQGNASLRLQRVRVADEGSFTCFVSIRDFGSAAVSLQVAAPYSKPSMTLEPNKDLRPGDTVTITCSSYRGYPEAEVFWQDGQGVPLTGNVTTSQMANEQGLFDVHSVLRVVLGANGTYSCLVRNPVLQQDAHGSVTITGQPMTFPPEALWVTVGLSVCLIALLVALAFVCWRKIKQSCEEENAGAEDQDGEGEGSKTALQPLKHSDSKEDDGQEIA
Assay: FACS on SKOV3 cells
Excerpt: Sequences of 31 mouse antibodies from Table 5 were selected to generate and produce human IgG1 chimeric antibodies. […]
Listed here are binders together with their documented MFI (Max).

binder	MFI (Max)
7-E1-F8-F6 (human IgG1 chimeric antibody) (antibody, V domains shown, human IgG1 chimeric antibody of the mouse clone) VH: QVQLQQSGPELVKPGASVQMSCKASGYTFTDYVISWVNQRTGQGLEWIGEIYPRSGNTYYNEKFKGKATLTADKSSNTAYMQLSSLTSEDSAVYFCARFDIAYSFDYWGQGTTLTVSS VL: DVVMTQTPLSLPVSLGDQASISCRSTQSLVHSNGVTYLHWYLQKPGQSPKLLIYKVSNRFSGVPDRFSGSGSGTDFTLKISRVEAEDLGVYFCSQGTHVPWTFGGGTKLEIK	3380
10-G6-C4-B2 (human IgG1 chimeric antibody) (antibody, V domains shown, human IgG1 chimeric antibody of the mouse clone) VH: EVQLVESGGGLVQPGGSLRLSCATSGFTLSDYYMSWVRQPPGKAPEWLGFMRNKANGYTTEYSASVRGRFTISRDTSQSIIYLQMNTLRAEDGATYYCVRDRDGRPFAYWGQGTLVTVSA VL: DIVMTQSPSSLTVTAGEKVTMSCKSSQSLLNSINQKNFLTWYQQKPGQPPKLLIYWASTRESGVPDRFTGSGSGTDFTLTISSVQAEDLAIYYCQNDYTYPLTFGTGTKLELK	5640
22-E11-C3-F2 (human IgG1 chimeric antibody) (antibody, V domains shown, human IgG1 chimeric antibody of the mouse clone) VH: QIQLVQSGPELKRPGETVKISCKASGYSFTNYGMNWVKQAPGKGLKWMGWINPYTGEPTYADDFKGRFAMSLETSASAAYLQINNLKNEDMATYFCGRDDGYHYTMNYWGQGTSVTVSS VL: DVVMTQPPLSLPVSLGDQASISCRSSQSLIHSNGDTYLHWYLQKPGQSPKLLIYKVSIRFSGVPDRFSGSGSGTDFTLKISRVEAEDLGVYFCSQSTYVPWTFGGGTKLEIK	5540
20-A2-D10-G8 (human IgG1 chimeric antibody) (antibody, V domains shown, human IgG1 chimeric antibody of the mouse clone) VH: QVQLQQSGPELVRPGVSVKISCKGSGYTFTDYTMHWVKESHAQSLEWIGVISTYYGNTNYNQNFKGKATLTVDKSSSTAYMELAGLTSEDSAIYYCARASYGSGYGPYYWYFDVWGAGTTVTVSS VL: DIQMTQSPASLFASVGETVTITCRASEKIYSYLAWYFQKQGKSPQFLVYNANALAEGVPSRFSGSGSGTQFSLKIKSLQPEDFGTYYCQHHYGSPVTFGAGSKLELK	3110
25-D3-G4-C6 (human IgG1 chimeric antibody) (antibody, V domains shown, human IgG1 chimeric antibody of the mouse clone) VH: EIQLQQTGPELVKPGASVKISCKASGYSFTDYIILWVKQSHGMSLEWIGNINPYYNSTYYNLKFKGKATLTVDKSSSTAYMQLDSLTSEDSAVYYCARDSFDWYFGVWGAGTTVTVSS VL: DVVMTQTPLSLPVSLGDQASISCRSSQSLVHSNGNTYLHWYLQKPGQSPKLLIYKVSNRFSGVPDRFSGSGSGTDFTLKISRVETEDLGIYFCSQSTHVPPLTFGAGTKLELK	3450

All figures here come from patent US20240400689A1.
